Where do the numbers come from? From PubChem BioAssay AID330.

System: P388 leukemia ip, CD2F1 mice, survival T/C
Method: NCI In Vivo Anticancer Drug Screen. Data for tumor model P388 Leukemia (intraperitoneal) in CD2F1 (CDF1) mice
Condition notes: endpoint: median survival time; dose: 50.0 mg/kg/injection; schedule: Q01DX009 (ip); vehicle: saline; higher = longer survival
Inconclusive results and toxic doses are left out.
Documented T/C across a set of molecules
Value kind: T/C

>  <Molecular string>
C=C(C)C(=O)OCCC[Si](OCCOC)(OCCOC)OCCOC

>  <Target entity>
P388 leukemia ip, CD2F1 mice, survival T/C

>  <Observed value>
95 % of control

$$$$
>  <Molecular string>
C[C@]12CCC(=O)C[C@@H]1CC[C@@H]1[C@@H]2CC[C@]2(C)[C@@H](OC(=O)N(CCCl)N=O)CC[C@@H]12

>  <Target entity>
P388 leukemia ip, CD2F1 mice, survival T/C

>  <Observed value>
121 % of control

$$$$
>  <Molecular string>
Cc1ncc(C[n+]2csc(CCO)c2C)c(N)n1

>  <Target entity>
P388 leukemia ip, CD2F1 mice, survival T/C

>  <Observed value>
108 % of control

$$$$
>  <Molecular string>
CC1(C)CC(=O)C2=C(C1)Oc1c(Cl)cc(Cl)cc1C2

>  <Target entity>
P388 leukemia ip, CD2F1 mice, survival T/C

>  <Observed value>
108 % of control

$$$$
>  <Molecular string>
BrCc1cn2ccccc2n1

>  <Target entity>
P388 leukemia ip, CD2F1 mice, survival T/C

>  <Observed value>
100 % of control

$$$$
>  <Molecular string>
NC(S(=O)(=O)O)S(=O)(=O)O

>  <Target entity>
P388 leukemia ip, CD2F1 mice, survival T/C

>  <Observed value>
105 % of control

$$$$
